Just for reference, PubChem BioAssay is where these values come from.

# procedure summary: optical density shifts of acrAB sulA E. coli – strain DRC41, OD650, 48 h, E. coli filamentation inducer project, primary screen (AID 1152);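 also: E. coli MC1000 strain DRC41 lacking acrAB efflux pump and sulA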
# condition context: higher = more signal, called active from +8 up or from −8 down
Reported values of z-score for individual entries

compound	z-score
NC(=O)NCC#Cc1ccc2c(c1)[C@]1(C(=O)N2)[C@H](c2ccc(O)cc2)N2[C@H](c3ccccc3)[C@H](c3ccccc3)OC(=O)[C@H]2[C@@H]1C(=O)N1CCN(c2ncccn2)CC1	0.642
O=C1C2C=CC(C(O)c3ccc(-c4ccccc4)s3)N(Nc3ccccc3F)C2C(=O)N1c1ccccc1 (configuration not stated)	-1.69
COc1ccc([Si](C)(C)[C@@H]2[C@@H](CCO)O[C@]3(C(=O)N(Cc4cccc(N(C=O)c5ccccc5)c4)c4ccccc43)[C@H]2C)cc1	0.313
C=CC[C@@]1(C(N)=O)N=C(c2ccc(OCCCO)cc2)O[C@@H]1c1ccccc1N=[N+]=[N-]	1.3
NC(=O)[C@]1(Cc2ccccc2)N=C(c2ccc(OCCCO)cc2)O[C@@H]1c1ccccc1	-0.465
CCN(CC)c1ccc(N2CC=CC34O[C@@H]5C=CCOC(=O)[C@@H]5[C@H]3C(=O)N(CCCCCO)[C@@H]4C2=O)cc1 (some centres not stated)	0.825
CCCNC(=O)[C@@]1(C)c2ccccc2C(=O)N(Cc2ccc(OC(F)(F)F)cc2)[C@H]1c1ccc(CO)cc1	0.707

* * *

# target desc: Dickkopf-related protein 1 (Homo sapiens)
# procedure summary: small molecules binding DKK1 protein – biochemical, small-molecule microarray, 635 nm fluorescence scan, primary screen (AID 1106);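 also: score merges emission near 667 nm with signal to noise over three replicate slides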
# condition context: higher = more signal
Could you label it True if measured composite z-score is 0.4 or higher, and False otherwise?

molecule	qualitative label
COc1cc(NN2C(C(O)c3ccccc3)C=CC3C(=O)N(c4ccccc4)C(=O)C32)cc(OC)c1OC (stereo not drawn)	False
C=CC[C@]1(C(=O)O)N=C(c2ccc(OCCCO)cc2)O[C@H]1c1ccccc1CN=[N+]=[N-]	False
COCCOC(=O)N1C(=O)[C@@]2(c3cc(C#Cc4ccc(OC)cc4)ccc31)[C@H](C(N)=O)[C@H]1C(=O)O[C@H](c3ccccc3)[C@H](c3ccccc3)N1[C@@H]2c1ccc(O)cc1	False
COCCOC(=O)N1C(=O)[C@@]2(c3cc(C#CC4=CCCCC4)ccc31)[C@H](C(=O)N1CCN(c3ncccn3)CC1)[C@H]1C(=O)O[C@H](c3ccccc3)[C@H](c3ccccc3)N1[C@@H]2c1ccc(OCCO)cc1	True
CCOC(=O)C[C@H]1[C@H](OC(=O)c2ccccc2-c2ccccc2)[C@@H](NC(=O)c2ccc(-c3ccccc3)cc2)c2cc(OCCCO)ccc2N1C(=O)c1ccccc1	True
Cc1ccc(S[C@]2(C(=O)NCC(C)C)CC(=O)N(Cc3ccccc3)[C@@H]2c2ccc(CO)cc2)cc1	False
O=C1O[C@H](c2ccccc2)[C@H](c2ccccc2)N2[C@H]1[C@@H](C(=O)N1CCCCCCC1)[C@]1(C(=O)Nc3ccc(C#CC4=CCCCC4)cc31)[C@H]2c1ccc(O)cc1	True
COC(=O)[C@@]1(Cc2ccc(F)cc2)[C@H]2c3cc(C(=O)N(C)C)n(CCCNc4ccc(C(F)(F)F)cc4Cl)c3C[C@H]2CN1C(=O)c1ccccc1	False
O=C1OCC=C[C@H]2OC34C=CCN(Cc5ccccc5)C(=O)[C@H]3N(CCCO)C(=O)[C@@H]4[C@@H]12 (stereo partly drawn)	False
COCCOC(=O)N1C(=O)[C@@]2(c3cc(C#Cc4ccc(OC)cc4)ccc31)[C@H](c1ccc(O)cc1)N1[C@H](c3ccccc3)[C@H](c3ccccc3)OC(=O)[C@H]1[C@@H]2C(=O)N1CCN(c2ncccn2)CC1	False
O=C1C2C=CC(C(O)CCc3ccccc3)N(Nc3ccccc3)C2C(=O)N1c1ccccc1 (stereo not drawn)	False
CN1C(=O)C2C=CC(C(O)c3ccc(Br)cc3)N(Nc3ccccc3)C2C1=O (stereo not drawn)	False
